- TARGET_OR_SYSTEM: T1, GST-AtPum2 PUM-HD (Arabidopsis thaliana, UniProt Q9ZW06 614-963)
- T1 sequence: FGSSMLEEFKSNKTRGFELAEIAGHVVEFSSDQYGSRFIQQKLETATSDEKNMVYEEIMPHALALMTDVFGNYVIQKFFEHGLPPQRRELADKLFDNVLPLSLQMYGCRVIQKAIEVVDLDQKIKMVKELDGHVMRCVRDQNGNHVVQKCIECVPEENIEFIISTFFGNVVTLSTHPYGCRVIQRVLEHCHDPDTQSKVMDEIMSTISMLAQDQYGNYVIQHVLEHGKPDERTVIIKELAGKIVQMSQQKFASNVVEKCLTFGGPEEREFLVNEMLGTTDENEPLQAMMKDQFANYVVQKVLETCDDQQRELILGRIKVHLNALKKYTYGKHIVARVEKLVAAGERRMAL
- EXPERIMENTAL_PROTOCOL: EMSA; apparent Kd; 200 pM labelled RNA; 10 mM HEPES pH 7.4, 1 mM EDTA, 50 mM KCl, 1 mM DTT, 0.01% BSA, 0.01% Tween 20; room temperature 1 h; 6% native gel run at 4 C
- CONDITION_DESCRIPTION: protein: recombinant; tags: N-terminal GST (pGEX-6P-1); label: 5' 32P; single strand, 19 nt
MEASURE: pKd
pKd is defined as minus the log10 of a concentration measured in mol/L.

### Prompt State the recorded pKd for this entry: CCAGAAUUGUAUAUAUUCG (ssRNA) [wildtype NRE1 (hunchback NRE1 BoxB)]
### Response 7.97

Reference for the values: paper PMC2848763
